Listed next: entries and their corresponding intrinsic clearance, rat liver microsomes.
Write it as a number; the unit mL/min/kg goes unstated.

c1ccc(-n2cnc3cc(NCc4ccccn4)ccc32)cc1	3200

query: Would you kindly share the measured intrinsic clearance, rat liver microsomes for O=C(Cc1ccc(F)cc1)NCCn1cccnc1=O ?
result: 22.7

query: Could you share which intrinsic clearance, rat liver microsomes value was measured for COCc1ccccc1CNc1ccc2cc(C#N)ccc2n1 ?
result: 429

query: Item under review: O=C(C1CCC1)N1CCC[C@H]1Cn1nnc(-c2cccs2)n1 . Reported intrinsic clearance, rat liver microsomes?
result: 4750

query: Requested read-out: intrinsic clearance, rat liver microsomes. Entry: Cc1ccc(-n2cc(C)cn2)c(NC(=O)CN(C)C)c1
result: 436

query: Quick one: intrinsic clearance, rat liver microsomes of CCCc1ncncc1C(=O)NCc1nncn1CCC ?
result: 38.8
